pIC50: −log10 of the molar value.
The following molecules were reported with pIC50 values on Cytochrome P450 1A2 (Homo sapiens, UniProt P05177) in different studies.

Query: Name the recorded pIC50 for CC(C)Oc1ccc(S(=O)(=O)N2C[C@@H](C)[C@@H](n3nc(CC(=O)O)c4ccc(F)cc43)C2)cn1 .
Reply: < 4.70

Query: I have this molecule here, C[C@H]1SC(N)=N[C@](C)(c2cc(NC(=O)c3ncc(C#N)cc3F)ccc2F)[C@H]1F , and I need its recorded pIC50.
Reply: ≤ 4.70

Query: Name the recorded pIC50 for COC(=O)[C@@H](C)Cn1c(=O)[nH]/c(=N\c2cccc(C3C=CCCC3)c2)n(Cc2ccc(C)cc2)c1=O (stereo partly shown) .
Reply: < 4.70

Query: I have this molecule here, C=C1C[C@@](C)(c2cncc(NC(=O)c3cnc(OC)cn3)c2)N=C(N)S1 , and I need its recorded pIC50.
Reply: < 4.70

Query: I have this molecule here, CCOc1cc2c(cc1OC)-c1c/c(=N\c3c(C)cc(C)cc3C)n(CCNC(=O)c3[nH]nnc3OC)c(=O)n1CC2 , and I need its recorded pIC50.
Reply: 4.30

Query: Find the recorded pIC50 belonging to C[C@@H](C#N)NC(=O)c1ccc(-c2nc(Nc3cnn(C4CCN(C)CC4)c3)ncc2F)cc1 and report it.
Reply: < 4.30

Query: So what's the measured pIC50 for this one? O=C(Nc1ccccc1O)c1ccc(Oc2cccc(C(=O)Nc3ccccc3O)c2)cc1
Reply: < 4.30

====

Reported IC50 on Cytochrome P450 1A2 (Homo sapiens) for assorted molecules, compiled from publications.

Query: Query the reported IC50 for Cytochrome P450 1A2 (Homo sapiens); item: [2H]C([2H])([2H])Oc1cnc(C(=O)Nc2cccc([C@@]3(C)N=C(N)S[C@H](C)[C@@H]3F)c2)cn1
Reply: ≥ 20 µM

Query: Lab note: need IC50 for CO[C@H]1[C@@H](CF)OC(N)=N[C@]1(C)c1cc(NC(=O)c2cnc(OCF)cn2)ccc1F on Cytochrome P450 1A2 (Homo sapiens), anyone have it?
Reply: ≥ 20 µM

Query: # value lookup — system Cytochrome P450 1A2 (Homo sapiens), readout IC50, item COc1cnc(C(=O)Nc2ccc(F)c([C@@]3(C)N=C(N)O[C@H](C(F)F)[C@@H]3C)c2)cn1
Reply: ≥ 20 µM

Query: Short answer please: IC50, Cytochrome P450 1A2 (Homo sapiens), entry Cc1cc(C(F)(F)F)ccc1-c1cn2c(C(F)(F)F)nnc2cn1
Reply: 1 to 15 µM

Query: What IC50 appears in the records for this molecule with Cytochrome P450 1A2 (Homo sapiens)? C[C@]1(c2nc(NC(=O)c3ccc(Cl)cn3)ccc2F)N=C(N)S[C@H](CF)[C@@H]1F
Reply: ≥ 20 µM

Query: Recorded IC50 for Cc1cnc(-c2cc(OC(C)C(C)O)cc(C(=O)N[C@H](C)c3cnc(C(F)(F)F)nc3)c2)s1 (single isomer, unassigned) with Cytochrome P450 1A2 (Homo sapiens), please?
Reply: > 20 µM

Query: Hello, I am looking for reported IC50 with Cytochrome P450 1A2 (Homo sapiens) for C[C@]1(c2cc(NC(=O)c3ccc(F)cn3)ccc2F)N=C(N)SCC12CC(F)(F)C2 . Could you help?
Reply: ≥ 20 µM

Query: What IC50 appears in the records for this molecule with Cytochrome P450 1A2 (Homo sapiens)? Cc1cnc(Nc2cnn(C3CCN(CC#N)CC3)c2)nc1-c1ccc(C(=O)NCC#N)cc1
Reply: > 50 µM

Query: Hi! What's the reported IC50 for Cc1cc(C#N)cnc1C(=O)Nc1cccc([C@@]2(C)N=C(N)S[C@H](C)[C@@H]2F)c1 on Cytochrome P450 1A2 (Homo sapiens)?
Reply: ≥ 20 µM

Query: GET /values?readout=IC50&system=Cytochrome P450 1A2 (Homo sapiens)&item= C[C@]1(c2cc(NC(=O)c3ccc(F)cn3)ccc2F)N=C(N)O[C@H](CF)[C@@H]1OCC(F)(F)F
Reply: ≥ 20 µM

Query: What is its IC50 for Cytochrome P450 1A2 (Homo sapiens)? Entry: C[C@H]1SC(N)=N[C@](C)(c2cc(NC(=O)c3cnc(OCC(F)F)cn3)ccc2F)[C@H]1F
Reply: ≥ 20 µM

Query: Find IC50 (Cytochrome P450 1A2 (Homo sapiens)) for the entry C[C@]1(c2nc(NC(=O)c3ccc(C#N)cn3)ccc2F)N=C(N)S[C@H](CF)[C@@H]1F
Reply: ≥ 20 µM

Query: Value wanted: IC50 (Cytochrome P450 1A2 (Homo sapiens)) of entry CO[C@H]1[C@@H](C)SC(N)=N[C@]1(C)c1cc(NC(=O)c2cnc(OCF)cn2)ccc1F
Reply: ≥ 20 µM
